Data provenance: patent EP4722213A1

# TESTED_TARGET: SOS1 (Homo sapiens)
# Sequence (Q07889 whole entry): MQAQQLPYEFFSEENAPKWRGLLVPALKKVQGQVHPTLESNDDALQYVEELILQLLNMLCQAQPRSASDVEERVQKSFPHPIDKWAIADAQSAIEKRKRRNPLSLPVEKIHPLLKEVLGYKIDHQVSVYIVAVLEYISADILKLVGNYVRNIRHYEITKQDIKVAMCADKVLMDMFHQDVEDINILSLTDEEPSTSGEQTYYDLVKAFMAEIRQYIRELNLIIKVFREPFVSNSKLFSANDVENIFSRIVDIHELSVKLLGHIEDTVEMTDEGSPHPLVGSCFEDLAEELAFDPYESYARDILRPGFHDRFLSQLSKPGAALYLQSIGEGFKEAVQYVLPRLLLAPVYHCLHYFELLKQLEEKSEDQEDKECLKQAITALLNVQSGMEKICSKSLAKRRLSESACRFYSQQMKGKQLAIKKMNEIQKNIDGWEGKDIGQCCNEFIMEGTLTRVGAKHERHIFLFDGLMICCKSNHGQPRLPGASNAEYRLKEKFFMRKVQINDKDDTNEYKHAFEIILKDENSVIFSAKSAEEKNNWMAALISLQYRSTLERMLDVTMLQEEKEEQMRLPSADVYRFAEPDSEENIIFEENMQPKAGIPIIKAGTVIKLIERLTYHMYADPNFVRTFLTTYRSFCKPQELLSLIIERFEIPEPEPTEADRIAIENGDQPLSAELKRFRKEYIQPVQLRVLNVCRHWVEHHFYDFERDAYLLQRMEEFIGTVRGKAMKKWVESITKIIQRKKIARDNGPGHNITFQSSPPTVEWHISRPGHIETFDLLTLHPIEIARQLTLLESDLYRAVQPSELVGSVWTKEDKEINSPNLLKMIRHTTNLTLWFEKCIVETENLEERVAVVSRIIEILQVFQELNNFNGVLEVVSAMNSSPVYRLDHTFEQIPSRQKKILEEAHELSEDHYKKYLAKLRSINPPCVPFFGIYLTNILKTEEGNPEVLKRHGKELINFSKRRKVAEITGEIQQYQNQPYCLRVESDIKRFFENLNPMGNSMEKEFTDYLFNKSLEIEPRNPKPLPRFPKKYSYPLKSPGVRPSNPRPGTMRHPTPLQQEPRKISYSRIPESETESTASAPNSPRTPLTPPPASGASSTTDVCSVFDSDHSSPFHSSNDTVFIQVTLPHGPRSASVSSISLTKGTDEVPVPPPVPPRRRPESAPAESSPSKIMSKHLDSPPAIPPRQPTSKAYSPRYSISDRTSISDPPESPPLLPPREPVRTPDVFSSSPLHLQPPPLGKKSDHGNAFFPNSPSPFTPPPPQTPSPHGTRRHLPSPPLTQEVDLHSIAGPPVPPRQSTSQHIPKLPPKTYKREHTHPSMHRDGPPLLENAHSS
# MEASUREMENT_PROTOCOL: biochemical
Where a name gives a salt, the structure may show the parent alone.
QUANTITY_KIND: IC50 (nM)
Number in nM, nothing else.

Past entries and their recorded results:
[[record]]
compound = "C[C@@H](Nc1nnc(N2CCC(CO)C2)c2cc(=O)n(C3(C)CC3)cc12)c1cccc(C(F)(F)CO)c1 (stereo partly shown)"
tested_target = "SOS1 (Homo sapiens)"
quantity_kind = "IC50"
endpoint_result = 4.4

[[record]]
compound = "C[C@@H](Nc1nnc(N2CCN(C)CC2)c2cc(=O)n(C3CCC3)cc12)c1cccc(C(F)F)c1F"
tested_target = "SOS1 (Homo sapiens)"
quantity_kind = "IC50"
endpoint_result = 4.5

[[record]]
compound = "Cc1c(C#N)cccc1[C@@H](C)Nc1nnc(N2CCN(C)CC2)c2cc(=O)n(C3CCN(C)CC3)cc12 [Example 135, formate]"
tested_target = "SOS1 (Homo sapiens)"
quantity_kind = "IC50"
endpoint_result = 14.1


As a next step, examine the compound that follows.
Answer with the recorded IC50 for the compound listed here: "C[C@@H](Nc1nnc(N2CCC3(CCCO3)CC2)c2cc(=O)n(C3(C)CC3)cc12)c1cccc(C(F)F)c1F"
12.5
